RAF proto-oncogene serine/threonine-protein kinase (Homo sapiens, UniProt P04049) measurements of pIC50, listed per entry.
Sequence (P04049 whole entry): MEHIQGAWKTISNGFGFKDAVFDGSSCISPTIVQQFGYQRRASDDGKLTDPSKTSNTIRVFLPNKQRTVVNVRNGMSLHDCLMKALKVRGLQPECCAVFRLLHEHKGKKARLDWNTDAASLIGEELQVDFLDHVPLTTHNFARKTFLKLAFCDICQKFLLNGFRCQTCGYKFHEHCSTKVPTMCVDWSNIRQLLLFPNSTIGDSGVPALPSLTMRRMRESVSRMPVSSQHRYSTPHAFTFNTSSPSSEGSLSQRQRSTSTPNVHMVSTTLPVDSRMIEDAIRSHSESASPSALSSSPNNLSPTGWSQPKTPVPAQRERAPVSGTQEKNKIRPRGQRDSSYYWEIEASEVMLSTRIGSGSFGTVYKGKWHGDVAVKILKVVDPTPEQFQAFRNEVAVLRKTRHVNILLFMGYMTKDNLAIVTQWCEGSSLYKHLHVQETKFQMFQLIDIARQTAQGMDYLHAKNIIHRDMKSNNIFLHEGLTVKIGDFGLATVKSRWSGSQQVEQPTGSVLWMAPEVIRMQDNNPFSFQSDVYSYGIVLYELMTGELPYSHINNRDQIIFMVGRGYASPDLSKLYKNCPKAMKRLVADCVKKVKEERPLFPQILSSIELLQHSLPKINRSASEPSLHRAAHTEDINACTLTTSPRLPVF
Answers are plain numbers, as −log10 of the molar value.

INSERT INTO results (smiles_structure, quantitative_readout) VALUES
  ('O=S(=O)(NCCCNc1nccc(-c2c(-c3cccc(F)c3)nc3sccn23)n1)c1ccc(C(F)(F)F)cc1', 7.40);

Could you tell me pIC50 for each of these compounds? They are listed below.
1. O=S(=O)(NCCCNc1nccc(-c2c(-c3cccc(F)c3)nc3sccn23)n1)c1ccc(Cl)cc1
2. Cc1ccc(S(=O)(=O)NCCCNc2nccc(-c3c(-c4cccc(F)c4)nc4sccn34)n2)cc1
3. COc1ccc(S(=O)(=O)NCCCNc2nccc(-c3c(-c4cccc(F)c4)nc4sccn34)n2)cc1
4. O=C(NCCNc1nccc(-c2c(-c3cccc(F)c3)nc3sccn23)n1)c1c(F)cccc1F
5. O=C(NCCNc1nccc(-c2c(-c3cccc(F)c3)nc3sccn23)n1)c1ccccc1
6. O=C(NCCNc1nccc(-c2c(-c3cccc(F)c3)nc3sccn23)n1)c1ccc(Cl)cc1

stdout:
1: 7.47; 2: 6.84; 3: 7.58; 4: 6.99; 5: 6.51; 6: 6.92

Could you tell me pIC50 for each of these compounds? They are listed below.
1. O=S(=O)(NCCNc1nccc(-c2c(-c3cccc(F)c3)nc3sccn23)n1)c1ccc(C(F)(F)F)cc1
2. O=S(=O)(NCCCNc1nccc(-c2c(-c3cccc(F)c3)nc3sccn23)n1)c1ccc(Br)cc1

stdout:
7.05
7.73

====

So I've got a bunch of compounds here, and I need their viability at 10 µM values.
System: M14
Assay: Cytotoxicity against human M14 cells assessed as cell viability at 10 uM incubated for 48 hrs by sulforhodamine B assay relative to control
Type: functional
Details: read-out: Activity
Numbers only, in %.

INSERT INTO results (smiles_structure, readout, quantitative_readout) VALUES
  ('O=S(=O)(NCCCNc1nccc(-c2c(-c3cccc(F)c3)nc3sccn23)n1)c1ccc(Br)cc1', 'viability at 10 µM', 48.1),
  ('O=C(NCCNc1nccc(-c2c(-c3cccc(F)c3)nc3sccn23)n1)c1c(F)cccc1F', 'viability at 10 µM', 29.3),
  ('O=C(NCCNc1nccc(-c2c(-c3cccc(F)c3)nc3sccn23)n1)c1ccccc1', 'viability at 10 µM', 28.4),
  ('O=S(=O)(NCCNc1nccc(-c2c(-c3cccc(F)c3)nc3sccn23)n1)c1cccc(F)c1', 'viability at 10 µM', 69.4),
  ('O=S(=O)(NCCCNc1nccc(-c2c(-c3cccc(F)c3)nc3sccn23)n1)c1cccc(F)c1', 'viability at 10 µM', 28.6),
  ('O=S(=O)(NCCCNc1nccc(-c2c(-c3cccc(F)c3)nc3sccn23)n1)c1ccc(F)cc1', 'viability at 10 µM', 59.4),
  ('O=S(=O)(NCCCNc1nccc(-c2c(-c3cccc(F)c3)nc3sccn23)n1)c1cccc2ccccc12', 'viability at 10 µM', 42.7),
  ('O=S(=O)(NCCNc1nccc(-c2c(-c3cccc(F)c3)nc3sccn23)n1)c1ccc(C(F)(F)F)cc1', 'viability at 10 µM', 91.4);

Next up:
stdin: Enter recorded viability at 10 µM with M14 for O=S(=O)(NCCCNc1nccc(-c2c(-c3cccc(F)c3)nc3sccn23)n1)c1ccc(C(F)(F)F)cc1 here.
stdout: 92.4
